Would you mind telling me the reported AC50 of each entry?
- experimental.system: Progesterone receptor (Homo sapiens, UniProt P06401); note: assay procedure not described here
- Sequence (P06401 whole entry): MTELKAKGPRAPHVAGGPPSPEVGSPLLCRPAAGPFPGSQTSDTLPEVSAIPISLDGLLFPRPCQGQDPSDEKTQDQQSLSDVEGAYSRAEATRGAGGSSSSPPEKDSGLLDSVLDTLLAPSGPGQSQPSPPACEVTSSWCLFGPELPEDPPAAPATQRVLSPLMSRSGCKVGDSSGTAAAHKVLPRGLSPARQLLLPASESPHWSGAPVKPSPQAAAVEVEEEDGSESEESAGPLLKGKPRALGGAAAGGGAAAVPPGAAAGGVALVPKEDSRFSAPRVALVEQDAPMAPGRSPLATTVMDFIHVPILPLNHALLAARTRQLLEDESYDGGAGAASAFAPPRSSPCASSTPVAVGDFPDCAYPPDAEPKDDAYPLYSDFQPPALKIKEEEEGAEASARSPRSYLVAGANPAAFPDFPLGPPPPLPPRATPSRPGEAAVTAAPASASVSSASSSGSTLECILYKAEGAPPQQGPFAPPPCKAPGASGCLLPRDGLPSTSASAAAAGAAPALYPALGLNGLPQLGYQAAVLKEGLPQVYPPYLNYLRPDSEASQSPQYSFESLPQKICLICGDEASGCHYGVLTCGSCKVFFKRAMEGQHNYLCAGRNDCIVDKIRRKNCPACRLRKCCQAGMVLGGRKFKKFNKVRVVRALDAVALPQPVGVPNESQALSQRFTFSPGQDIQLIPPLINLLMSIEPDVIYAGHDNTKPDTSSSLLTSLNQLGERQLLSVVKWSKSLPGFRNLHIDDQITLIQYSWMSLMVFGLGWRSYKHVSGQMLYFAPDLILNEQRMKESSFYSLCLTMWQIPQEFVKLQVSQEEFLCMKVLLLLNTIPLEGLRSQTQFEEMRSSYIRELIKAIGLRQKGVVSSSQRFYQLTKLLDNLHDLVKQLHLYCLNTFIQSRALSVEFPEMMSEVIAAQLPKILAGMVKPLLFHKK

[[record]]
compound = "O=c1[nH]cc(F)c(=O)[nH]1"
experimental_system = "Progesterone receptor (Homo sapiens, UniProt P06401)"
result = "> 30 µM"

[[record]]
compound = "C[C@H]1C[C@H]2[C@@H]3CCC4=CC(=O)C=C[C@]4(C)[C@@]3(F)[C@@H](O)C[C@]2(C)[C@@]1(O)C(=O)CO"
experimental_system = "Progesterone receptor (Homo sapiens, UniProt P06401)"
result = "11.4 µM"

[[record]]
compound = "CC(=O)OCC(=O)[C@@]1(OC(C)=O)[C@@H](C)C[C@H]2[C@@H]3C[C@H](F)C4=CC(=O)C=C[C@]4(C)[C@@]3(F)[C@@H](O)C[C@@]21C [DIFLORASONE DIACETATE]"
experimental_system = "Progesterone receptor (Homo sapiens, UniProt P06401)"
result = "0.0193 µM"

[[record]]
compound = "C[C@@H](CN1CC(=O)NC(=O)C1)N1CC(=O)NC(=O)C1"
experimental_system = "Progesterone receptor (Homo sapiens, UniProt P06401)"
result = "> 30 µM"

[[record]]
compound = "CN1C(C(=O)Nc2ccccn2)=C(OC(=O)/C=C/c2ccccc2)c2ccccc2S1(=O)=O [PIROXICAM CINNAMATE]"
experimental_system = "Progesterone receptor (Homo sapiens, UniProt P06401)"
result = "> 30 µM"


Now turn to the next compound.
Requested field: AC50. Item: `CC(C)Nc1cccnc1N1CCN(C(=O)c2cc3cc(NS(C)(=O)=O)ccc3[nH]2)CC1`
> 30 µM
